This collection of values is drawn from ChEMBL document CHEMBL1147026.

Assign MIC to each entry below.
test system: Staphylococcus aureus; assay: Antibacterial activity against methicillin-resistant Staphylococcus aureus CMAH 0430 after 24 hrs by two fold dilution method; assay type: functional
Give bare numbers, in µg/mL.

{"Query Smiles": "COC(=O)[C@H](Cc1c[nH]c2ccccc12)NC(=O)c1ccccn1", "MIC [µg/mL]": 1}

As a next step, examine the compound that follows.
[in] Sample O=C(N[C@H](CO)[C@H](O)c1ccc([N+](=O)[O-])cc1)C(Cl)Cl — what was its MIC?
[out] 1

---

tested on: Aspergillus sp.; assay: Antifungal activity against Aspergillus sp. after 48 to 72 hrs by broth microdilution method; format: functional; details: Aspergillus sp.
Recorded Metric: MIC50 (µg/mL)
Give bare numbers, in µg/mL.

{"Molecule": "COC(=O)[C@H](Cc1c[nH]c2ccccc12)NC(=O)c1ccccn1", "MIC50 / µg/mL": 8}

As a next step, examine the molecule that follows.
[in] Sample C[C@@H]1[C@H](O)[C@@H](C)/C=C/C=C/C=C/C=C/C=C/C=C/C=C/[C@H](O[C@@H]2O[C@H](C)[C@@H](O)[C@H](N)[C@@H]2O)C[C@@H]2O[C@](O)(C[C@@H](O)C[C@@H](O)[C@H](O)CC[C@@H](O)C[C@@H](O)CC(=O)O[C@H]1C)C[C@H](O)[C@H]2C(=O)O [AMPHOTERICIN B] — what was its MIC50?
[out] 1
